- Experimental Target: T1, SPF45 UHM domain (residues 301-401), as used in the fluorescence polarization assay (UniProt Q96I25 301-401)
- T1 construct: SPF45, UHM domain, residues 301-401; The methods tell the state of the His tag only for NMR/ITC (cleaved) and AlphaScreen/crystallization (kept), not for the FP assay; source: E. coli BL21 (DE3), purified (Ni-NTA)
- T1 sequence (looked up): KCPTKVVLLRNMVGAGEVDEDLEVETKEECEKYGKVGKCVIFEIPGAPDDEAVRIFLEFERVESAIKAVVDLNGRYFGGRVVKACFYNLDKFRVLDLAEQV
- Procedure Summary: fluorescence polarisation; 100 nM tracer with serial dilutions of protein; 384-well plate; 20 mM Tris pH 7.5, 300 mM NaCl, 1 mM DTT, 1.6 % DMSO; 1 h incubation; 4-parameter logistic fit
- Assay Conditions: both partners purified
Bridge positions count the residues as written; N and C are the ends. Ends that are not written are not given here.
Outcome Measure: EC50
The reply should consist of the numeric value with the unit placed after it.

Ask: What measured EC50 goes with KSRWDEKC-fluorescein (lactam 1-6; also: fluorescein on C-terminal K-C, cyclised stretch derived from the natural linear ULM peptide ligand (SF3b1 ULM); added residues that carry the fluorescein; Synthesis is described in the Supplementary Methods; also called cyclic peptide tagged with fluorescein; tracer; source: synthetic peptide) [[sc,sc(KSRWDE)]-K-C-fluorescein] ?
Result: 2800 nM
